# Method notes: Liver Microsome Stability Assay (rat)
# Cond: rat liver microsomes, with NADPH, 1.0 uM compound
Decision: Liver Microsome Stability (Multiple Species): Rat - % Remaining after 30 min w/NADPH >= 2% yields Satisfied, all other cases yield Not satisfied.

Molecule	Classification
O=C(Nc1nc([C@H]2CCCN2c2ccc(-c3ncco3)cc2)cs1)c1cccn1Cc1ccncc1 [Compound A9]	Not satisfied
Cc1nc(/C=C/c2csc(NC(=O)c3cccn3Cc3ccncc3)n2)co1 [Compound B2]	Not satisfied

Quick check: does O=C(Nc1nc([C@H]2CCCN2c2ccc(OC3CSC3)cc2)cs1)c1cccn1Cc1ccnc(F)c1 [Compound A157] have Liver Microsome Stability (Multiple Species): Rat - % Remaining after 30 min w/NADPH greater than or equal to 2%?
Satisfied

For this molecule, is measured Liver Microsome Stability (Multiple Species): Rat - % Remaining after 30 min w/NADPH 2% or higher? CC(C)n1cnc(/C=C/c2csc(NC(=O)c3cccn3Cc3ccncc3)n2)c1 [Compound B37]
Satisfied

Hi team, for O=C(Nc1nc(C2Cc3cccnc3C2)cs1)c1cccn1Cc1ccncc1 (centres unmarked) [Compound E37] , is the recorded Liver Microsome Stability (Multiple Species): Rat - % Remaining after 30 min w/NADPH at or above 2%?
Not satisfied

Evaluate O=C(Nc1nc([C@H]2CCCN2c2ccccc2)cs1)c1cccn1Cc1cc(F)nc(F)c1 [Compound A60] : Liver Microsome Stability (Multiple Species): Rat - % Remaining after 30 min w/NADPH at minimum 2%?
Satisfied

Quick check: does O=C(Nc1nc(/C=C/c2cn(-c3ccccc3)cn2)cs1)c1cccn1Cc1ccnc(F)c1 [Compound B104] have Liver Microsome Stability (Multiple Species): Rat - % Remaining after 30 min w/NADPH greater than or equal to 2%?
Satisfied

State whether the measured Liver Microsome Stability (Multiple Species): Rat - % Remaining after 30 min w/NADPH reaches 2%, counting equality as reaching it, for CC(=O)N1CCC(Oc2ccc(N3CCC[C@@H]3c3csc(NC(=O)c4cccn4Cc4ccnc(F)c4)n3)cc2C#N)CC1 [Compound A126]
Not satisfied

====

# Tested on: TNFα-FL/Gaussia Luciferase
# Method notes: Dox Induced TNFα-FL-Gluc Assay
# Type: cell-based
# Cond: 24 hr Dox induction; 293FRT/TO cells; read-out: 24 hr Dox Inducible TNFaFLGluc 293FRT/TO: Mean IC50
For each entry below, report its IC50 value.
Answers are plain numbers, in nM.

Molecule	Scale unit	IC50
CNCCOc1ccc(N2CCC[C@@H]2c2csc(NC(=O)c3cccn3Cc3ccnc(F)c3)n2)cc1 [Compound A103]	nM	8640

Go through the items and report each one's IC50.
1. Cc1ccc(N2CCC[C@@H]2c2csc(NC(=O)c3cccn3Cc3ccncc3)n2)cc1 [Compound A21]
2. O=C(Nc1nc([C@H]2CCCN2c2ccc(OC3CCS(=O)(=O)CC3)cc2)cs1)c1cccn1Cc1ccnc(F)c1 [Compound A138]

1: 27.1; 2: 1600

====

# Method notes: Liver Microsome Stability Assay (monkey)
# Cond: monkey liver microsomes, with NADPH, 1.0 uM compound
Measured endpoint: Liver Microsome Stability (Multiple Species): Monkey - % Remaining after 30 min w/NADPH (%)
Give bare numbers, in %.

Below, 3 compounds whose answers are already recorded.
Compound	Reading
CN(C)C(=O)N1CC(Oc2ccc(N3CCC[C@@H]3c3csc(NC(=O)c4cccn4Cc4ccnc(F)c4)n3)cc2)C1 [Compound A131]	6.3
CC(=O)N[C@H](C)c1ccc(N2CCC[C@@H]2c2csc(NC(=O)c3cccn3Cc3ccncc3)n2)cc1 [Compound A66]	2.72
O=C(Nc1nc([C@H]2CCCN2c2ccc(Br)cc2)cs1)c1cccn1Cc1ccnc(F)c1 [Compound A116]	18.9

Lab note: each compound below needs its Liver Microsome Stability (Multiple Species): Monkey - % Remaining after 30 min w/NADPH filled in.
1. CCC(CC#N)Cn1cccc1C(=O)Nc1nc([C@H]2CCCN2c2ccccc2)cs1 (stereo partly drawn) [Compound C113]
2. Cc1cc(C(=O)Nc2nc([C@H]3CCCN3c3ccc(OC4CCN(C(N)=O)CC4)cc3)cs2)n(Cc2ccnc(F)c2)c1 [Compound A166]
3. O=C(Nc1nc([C@H]2CCCN2c2ccc(C3CCCNC3)cc2)cs1)c1cccn1Cc1ccncc1 (stereo partly drawn) [Compound A61]
4. N#CC[C@@H](O)Cn1cccc1C(=O)Nc1nc([C@H]2CCCN2c2ccccc2)cs1 [Compound C112]

[3.66, 72.2, 5.11, 13.1]

For the 7 compounds below, give their Liver Microsome Stability (Multiple Species): Monkey - % Remaining after 30 min w/NADPH values.
1. O=C(Nc1nc(/C=C/c2cn(C3CCCCC3)cn2)cs1)c1cccn1Cc1ccnc(F)c1 [Compound B55]
2. N#CC[C@H](O)Cn1cccc1C(=O)Nc1nc([C@H]2CCCN2c2ccccc2)cs1 [Compound C100]
3. Cc1c(/C=C/c2csc(NC(=O)c3cccn3Cc3ccncc3)n2)ncn1C(C)C [Compound B58]
4. O=C(Nc1nc([C@H]2CCCN2c2ccccc2)cs1)c1cccn1Cc1ccnc(Br)c1 [Compound E23]
5. C[C@@H](CC#N)Cn1cccc1C(=O)Nc1nc([C@H]2CCCN2c2ccccc2)cs1 [Compound C87]
6. Cc1ccnc(/C=C/c2csc(NC(=O)c3cccn3Cc3ccncc3)n2)c1 [Compound E1]
7. CN(C)CCOc1ccc(N2CCC[C@@H]2c2csc(NC(=O)c3cccn3Cc3ccnc(F)c3)n2)cc1 [Compound A104]

1. 0.4
2. 18.5
3. 5.89
4. 2.07
5. 0.21
6. 0.53
7. 51.6

Fill blank: measured Liver Microsome Stability (Multiple Species): Monkey - % Remaining after 30 min w/NADPH of the compound CC(=O)N1CCC(Oc2ccc(N3CCC[C@@H]3c3csc(NC(=O)c4cccn4Cc4ccnc(F)c4)n3)c(F)c2)CC1 [Compound A100] is ____.
0.24

====

# Method notes: Liver Microsome Stability Assay (rat)
# Cond: rat liver microsomes, with NADPH, 1.0 uM compound
Measured endpoint: Liver Microsome Stability (Multiple Species): Rat - % Remaining after 30 min w/NADPH (%)
Answers are plain numbers, in %.

Worked examples, 6 compounds total:
Compound	Reading
N#Cc1ccc(Cn2cccc2C(=O)Nc2nc([C@H]3CCCN3c3ccccc3)cs2)cc1	15.1
O=C(Nc1nc([C@H]2CCCN2c2ccc(C3CCCNC3)cc2)cs1)c1cccn1Cc1ccncc1 (stereo partly shown)	22.8
CCc1cc(/C=C/c2csc(NC(=O)c3cccn3Cc3ccnc(F)c3)n2)no1	1.11
N#Cc1cnccc1Cn1cccc1C(=O)Nc1nc([C@H]2CCCN2c2ccccc2)cs1	0.83
CC(C)n1cc(/C=C/c2csc(NC(=O)c3cccn3Cc3ccnc(F)c3)n2)nc1C#N	11.5
C[C@@H](N)c1ccc(N2CCC[C@@H]2c2csc(NC(=O)c3cccn3Cc3ccnc(F)c3)n2)cc1	94.1

Using the record for CC(c1ccncc1)n1cccc1C(=O)Nc1nc([C@H]2CCCN2c2ccccc2)cs1 (stereo partly shown) , report its Liver Microsome Stability (Multiple Species): Rat - % Remaining after 30 min w/NADPH.
10.1

====

# Tested on: TNFα-FL/Gaussia Luciferase
# Method notes: Dox Induced TNFα-FL-Gluc Assay
# Format: cell-based
# Cond: ratio of TNFaFLGluc IC50 to PD1ssGluc IC50
Assign class by 24 hr Dox Inducible TNFaFLGluc 293FRT/TO: TNF/PD1: not lower than 10 means TRUE; lower than 10 means FALSE.

Compound	Classification
O=C(Nc1nc([C@H]2CCCN2c2ccc(C3CCCCN3)cc2)cs1)c1cccn1Cc1ccncc1 (stereo partly drawn)	TRUE
COCc1ccc(N2CCC[C@@H]2c2csc(NC(=O)c3cccn3Cc3ccncc3)n2)cc1	TRUE
CC(C)c1ccc(/C=C/c2csc(NC(=O)c3cccn3Cc3ccnc(F)c3)n2)nc1	TRUE
CNC(=O)N1CCC(Oc2ccc(N3CCC[C@@H]3c3csc(NC(=O)c4cccn4Cc4ccnc(F)c4)n3)cc2)CC1	TRUE
CC(=O)N1CCC(Oc2ccc(N3CCC[C@@H]3c3csc(NC(=O)c4cccn4Cc4ccnc(F)c4)n3)cc2F)CC1	FALSE

hey, is 24 hr Dox Inducible TNFaFLGluc 293FRT/TO: TNF/PD1 for this one >= 10? `O=C(Nc1nc([C@@H]2CCCN2c2ccc(C(F)(F)F)cc2)cs1)c1cccn1Cc1ccnc(F)c1`
TRUE

Could you please find out whether `CC(=O)N1CCC(Oc2ccc(N3CCC[C@@H]3c3csc(NC(=O)c4cccn4Cc4ccnc(F)c4)n3)cn2)CC1` has 24 hr Dox Inducible TNFaFLGluc 293FRT/TO: TNF/PD1 that meets 10 or exceeds it?
TRUE

Please tell me: is the compound `N#CCn1cnc(/C=C/c2csc(NC(=O)c3cccn3Cc3ccnc(F)c3)n2)c1` at or over 10 in terms of 24 hr Dox Inducible TNFaFLGluc 293FRT/TO: TNF/PD1?
TRUE

Quick check: does `CN(C)CCOc1ccc(N2CCC[C@@H]2c2csc(NC(=O)c3cccn3Cc3ccnc(F)c3)n2)cc1` have 24 hr Dox Inducible TNFaFLGluc 293FRT/TO: TNF/PD1 greater than or equal to 10?
TRUE

Could you please find out whether CN1c2ccccc2CCC1/C=C/c1csc(NC(=O)c2cccn2Cc2ccncc2)n1 (stereo not drawn) has 24 hr Dox Inducible TNFaFLGluc 293FRT/TO: TNF/PD1 that meets 10 or exceeds it?
TRUE

Is 24 hr Dox Inducible TNFaFLGluc 293FRT/TO: TNF/PD1 for `Cc1cc(C(=O)Nc2nc([C@H]3CCCN3c3ccc(NC(=O)N(C)C)cc3)cs2)n(Cc2ccnc(F)c2)c1` at or above 10?
TRUE

Could you tell me if the measured 24 hr Dox Inducible TNFaFLGluc 293FRT/TO: TNF/PD1 of `CC(C)Oc1ccc(N2CCC[C@@H]2c2csc(NC(=O)c3cccn3Cc3ccncc3)n2)cc1` reaches 10 or more?
FALSE

Threshold query (24 hr Dox Inducible TNFaFLGluc 293FRT/TO: TNF/PD1 >= 10) on `Cc1ccc(N2CCC[C@@H]2c2csc(NC(=O)c3cccn3Cc3ccncc3)n2)cc1`
TRUE

Please tell me: is the compound `Cc1ocnc1/C=C/c1csc(NC(=O)c2cccn2Cc2ccncc2)n1` at or over 10 in terms of 24 hr Dox Inducible TNFaFLGluc 293FRT/TO: TNF/PD1?
TRUE

Does 24 hr Dox Inducible TNFaFLGluc 293FRT/TO: TNF/PD1 meet or surpass 10 for `C[C@H](N)c1ccc(N2CCC[C@@H]2c2csc(NC(=O)c3cccn3Cc3ccncc3)n2)cc1` ?
TRUE

Is the recorded value of 24 hr Dox Inducible TNFaFLGluc 293FRT/TO: TNF/PD1 equal to or greater than 10 for this compound? CC(=O)N1CCC(C(C)c2ccc(N3CCC[C@@H]3c3csc(NC(=O)c4cccn4Cc4ccnc(F)c4)n3)cc2)CC1 (stereo partly drawn)
TRUE

Hi, just wondering whether `O=C(Nc1nc([C@H]2CCCN2c2ccc(OC3CSC3)cc2)cs1)c1cccn1Cc1ccnc(F)c1` shows 24 hr Dox Inducible TNFaFLGluc 293FRT/TO: TNF/PD1 of 10 or higher.
FALSE
